# OD450 nm per record follows
target: monkey GPC3-His protein (monkey); test: ELISA, monkey GPC3-His coated; antibody 2.67 nM
Keep the answer to the number alone.

binder	experimental_readout	observed_value
hAb005LH1L1 (antibody, human IgG1, V domains shown) VH: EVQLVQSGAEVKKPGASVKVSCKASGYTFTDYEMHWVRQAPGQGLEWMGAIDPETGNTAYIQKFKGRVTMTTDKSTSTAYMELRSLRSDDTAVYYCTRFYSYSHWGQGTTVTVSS VL: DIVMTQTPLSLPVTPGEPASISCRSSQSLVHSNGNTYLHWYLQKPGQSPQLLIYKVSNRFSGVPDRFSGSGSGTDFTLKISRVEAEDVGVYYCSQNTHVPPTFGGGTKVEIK	OD450 nm	1.21

Now for a further binder.
Summary for this binder, hAb007LH2L1a (antibody, human IgG1, V domains shown) VH: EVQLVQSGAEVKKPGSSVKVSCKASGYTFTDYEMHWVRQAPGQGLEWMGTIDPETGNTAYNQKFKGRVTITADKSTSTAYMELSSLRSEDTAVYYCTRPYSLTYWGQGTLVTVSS VL: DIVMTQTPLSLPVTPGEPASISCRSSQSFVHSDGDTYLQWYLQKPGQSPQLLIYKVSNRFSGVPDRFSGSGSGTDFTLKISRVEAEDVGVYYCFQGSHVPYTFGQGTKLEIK : OD450 nm is 2.1

Data provenance: patent US20260116991A1
